# Tested on: U2OS
# measurementDescription: Multiplex assay against U2OS
# Assay type: toxicity, cell-based
# conditionContext: human, 24 h, 10 µM, compound concentration 10 uM, replicate 1
readoutKind: Population Hoechst High Intensity Objects (%)
Please give a number only; it is taken to be in %.

API: value(readout= Population Hoechst High Intensity Objects (%), system= U2OS, query= "O=C(Cc1ccc(-c2ccc(OCCN3CCOCC3)cc2)cn1)NCc1ccccc1" )
8

API: value(readout= Population Hoechst High Intensity Objects (%), system= U2OS, query= "CCOc1cc(C(=O)N2CCC(N3CCN(C)CC3)CC2)ccc1Nc1ncc2c(n1)N(C1CCCC1)c1ccccc1C(=O)N2C" )
7

API: value(readout= Population Hoechst High Intensity Objects (%), system= U2OS, query= "Cc1ccc2nc(NCCN)c3ncc(C)n3c2c1.O=C(O)C(F)(F)F.O=C(O)C(F)(F)F" )
8

API: value(readout= Population Hoechst High Intensity Objects (%), system= U2OS, query= "Cc1cn(-c2cc(NC(=O)c3ccc(C)c(Nc4nccc(-c5cccnc5)n4)c3)cc(C(F)(F)F)c2)cn1" )
60

API: value(readout= Population Hoechst High Intensity Objects (%), system= U2OS, query= "CCCn1c(=O)c2[nH]c(-c3cnn(Cc4cccc(C(F)(F)F)c4)c3)nc2n(CC)c1=O" )
16

API: value(readout= Population Hoechst High Intensity Objects (%), system= U2OS, query= CCOC(=O)c1c(C)[nH]c2ccc3c(c12)CN1CCc2cc(OC)ccc2C1O3 (stereo unspecified) )
4

API: value(readout= Population Hoechst High Intensity Objects (%), system= U2OS, query= "CCn1cc(-c2ccnc3[nH]c(-c4cccc(CN(C)C)c4)cc23)c(-c2ccc(NC(=O)N(C)C)cc2)n1" )
16

API: value(readout= Population Hoechst High Intensity Objects (%), system= U2OS, query= "O=C1NC(=O)C(c2cnc3ccccn23)=C1c1cn2c3c(cc(F)cc13)CN(C(=O)N1CCCCC1)CC2" )
18

API: value(readout= Population Hoechst High Intensity Objects (%), system= U2OS, query= "O=C(Nc1ccc(-n2nc(-c3cccnc3)cc2C(F)(F)F)cn1)c1ccc(-c2ccccc2)c(F)c1" )
5

API: value(readout= Population Hoechst High Intensity Objects (%), system= U2OS, query= "CNc1cc(Oc2cc(C(=O)Nc3cc(N4CCN(C)CC4)cc(C(F)(F)F)c3)ccc2C)ncn1" )
10

API: value(readout= Population Hoechst High Intensity Objects (%), system= U2OS, query= "COc1cccc2cc(-c3nc([C@H]4CC[C@H](C(=O)O)CC4)n4ncnc(N)c34)[nH]c12" )
7

API: value(readout= Population Hoechst High Intensity Objects (%), system= U2OS, query= "Cl.Oc1ccc2c3c1O[C@H]1c4[nH]c5c(c4C[C@@]4(O)[C@@H](C2)N(CC2CC2)CC[C@]314)C[C@@]1(O)[C@H]2Cc3ccc(O)c4c3[C@@]1(CCN2CC1CC1)[C@H]5O4" )
3

API: value(readout= Population Hoechst High Intensity Objects (%), system= U2OS, query= COc1cc2ncnc(Nc3ccc(F)c(Cl)c3)c2cc1NC(=O)/C=C/CN1CCCCC1 [DACOMITINIB ANHYDROUS] )
2

API: value(readout= Population Hoechst High Intensity Objects (%), system= U2OS, query= "CCN1CCN(Cc2ccc(Nc3ncc(F)c(-c4cc(F)c5nc(C)n(C(C)C)c5c4)n3)nc2)CC1.CS(=O)(=O)O" )
8

API: value(readout= Population Hoechst High Intensity Objects (%), system= U2OS, query= "COc1cc(N2CCN(C)CC2)ccc1Nc1ncc2c(n1)N(C)c1ccccc1C(=O)N2C" )
7

API: value(readout= Population Hoechst High Intensity Objects (%), system= U2OS, query= "O=C(Nc1ccc(Cl)cc1)Nc1cccc(-c2cccc(N3CCCC3)n2)c1" )
21
